tested on: NCI-H460; test: Growth inhibition of human NCI-H460 cells at 10 uM incubated for 48 hrs by sulforhodamine B assay relative to control; type: functional; settings: read-out: GI
reported endpoint: inhibition of growth at 10 µM (%)
Report the figure in % without appending any unit label.

Query block: What does the record list as inhibition of growth at 10 µM for `O=C(CNc1c(Cl)cccc1Cl)Nc1ccc(-c2nc3ccccc3s2)cc1` ?
Result block: 8.81

Query block: Check `Cc1ccc(NCC(=O)Nc2ccc(-c3nc4ccccc4s3)cc2)cc1` too.
Result block: -2.34

Query block: Now consider `COc1ccc(NCC(=O)Nc2ccc(-c3nc4ccccc4s3)cc2)cc1` and answer again.
Result block: 0.74

Query block: Please do the same for `O=C(CN(c1ccccc1)c1ccccc1)Nc1ccc(-c2nc3ccccc3s2)cc1` as well.
Result block: -0.29

Query block: # iterate: `O=C(Cn1c2ccccc2c2ccccc21)Nc1ccc(-c2nc3ccccc3s2)cc1`
Result block: -1.93

Query block: Entry `O=C(CNc1nc(-c2ccc(Cl)cc2)cs1)Nc1ccc(-c2nc3ccccc3s2)cc1` please
Result block: 8.75

Query block: Now give it for `O=C(CNc1nnc(-c2ccc(Cl)cc2)o1)Nc1ccc(-c2nc3ccccc3s2)cc1` too.
Result block: 0.31

Query block: Next record, please: `Cc1cc(C)n(CC(=O)Nc2ccc(-c3nc4ccccc4s3)cc2)n1`
Result block: -2.37

Query block: Then this compound: `Cc1cc(NCC(=O)Nc2ccc(-c3nc4ccccc4s3)cc2)no1`
Result block: -2.65

Query block: Request: `O=C(CNc1nc2ccccc2s1)Nc1ccc(-c2nc3ccccc3s2)cc1`
Result block: 0.21
